test system: HONE1 cell line; assay: Cytotoxicity against human HONE1 cells after 48 hrs by MTT assay; assay type: functional, cell-based; conditions: HONE1, 48 h
Recorded IC50 for the following compounds
// return numeric value only (unit: µM, not printed)

C=C1C(=O)O[C@H]2[C@H]1[C@@H](OC(=O)/C(C)=C/C)C[C@@](C)(O)[C@]13C=C[C@](C)([C@H]21)[C@]1(C3)C(=O)O[C@@H]2[C@H]3C(C)=CC[C@H]3[C@](C)(O)C[C@H](O)[C@H]21; 7.5

Continue with the compound presented below.
(Q) // returns reported IC50 for input C/C=C(\C)C(=O)O[C@H]1C[C@@](C)(O)[C@]23C=C[C@](C)([C@@H]2[C@H]2OC(=O)[C@@H](C)[C@@H]21)[C@]1(C3)C(=O)O[C@@H]2[C@H]3C(C)=CC[C@H]3[C@](C)(O)C[C@H](O)[C@H]21
(A) 9.2
